target: T1, Clostridium difficile toxin A (TcdA) (Clostridium difficile, UniProt P16154 1-2710); experiment: SPR (Biacore 3000), VHH over immobilized TcdA, 1:1 fit
T1 construct: mature; also called full-length TcdA
T1 sequence (P16154 whole entry): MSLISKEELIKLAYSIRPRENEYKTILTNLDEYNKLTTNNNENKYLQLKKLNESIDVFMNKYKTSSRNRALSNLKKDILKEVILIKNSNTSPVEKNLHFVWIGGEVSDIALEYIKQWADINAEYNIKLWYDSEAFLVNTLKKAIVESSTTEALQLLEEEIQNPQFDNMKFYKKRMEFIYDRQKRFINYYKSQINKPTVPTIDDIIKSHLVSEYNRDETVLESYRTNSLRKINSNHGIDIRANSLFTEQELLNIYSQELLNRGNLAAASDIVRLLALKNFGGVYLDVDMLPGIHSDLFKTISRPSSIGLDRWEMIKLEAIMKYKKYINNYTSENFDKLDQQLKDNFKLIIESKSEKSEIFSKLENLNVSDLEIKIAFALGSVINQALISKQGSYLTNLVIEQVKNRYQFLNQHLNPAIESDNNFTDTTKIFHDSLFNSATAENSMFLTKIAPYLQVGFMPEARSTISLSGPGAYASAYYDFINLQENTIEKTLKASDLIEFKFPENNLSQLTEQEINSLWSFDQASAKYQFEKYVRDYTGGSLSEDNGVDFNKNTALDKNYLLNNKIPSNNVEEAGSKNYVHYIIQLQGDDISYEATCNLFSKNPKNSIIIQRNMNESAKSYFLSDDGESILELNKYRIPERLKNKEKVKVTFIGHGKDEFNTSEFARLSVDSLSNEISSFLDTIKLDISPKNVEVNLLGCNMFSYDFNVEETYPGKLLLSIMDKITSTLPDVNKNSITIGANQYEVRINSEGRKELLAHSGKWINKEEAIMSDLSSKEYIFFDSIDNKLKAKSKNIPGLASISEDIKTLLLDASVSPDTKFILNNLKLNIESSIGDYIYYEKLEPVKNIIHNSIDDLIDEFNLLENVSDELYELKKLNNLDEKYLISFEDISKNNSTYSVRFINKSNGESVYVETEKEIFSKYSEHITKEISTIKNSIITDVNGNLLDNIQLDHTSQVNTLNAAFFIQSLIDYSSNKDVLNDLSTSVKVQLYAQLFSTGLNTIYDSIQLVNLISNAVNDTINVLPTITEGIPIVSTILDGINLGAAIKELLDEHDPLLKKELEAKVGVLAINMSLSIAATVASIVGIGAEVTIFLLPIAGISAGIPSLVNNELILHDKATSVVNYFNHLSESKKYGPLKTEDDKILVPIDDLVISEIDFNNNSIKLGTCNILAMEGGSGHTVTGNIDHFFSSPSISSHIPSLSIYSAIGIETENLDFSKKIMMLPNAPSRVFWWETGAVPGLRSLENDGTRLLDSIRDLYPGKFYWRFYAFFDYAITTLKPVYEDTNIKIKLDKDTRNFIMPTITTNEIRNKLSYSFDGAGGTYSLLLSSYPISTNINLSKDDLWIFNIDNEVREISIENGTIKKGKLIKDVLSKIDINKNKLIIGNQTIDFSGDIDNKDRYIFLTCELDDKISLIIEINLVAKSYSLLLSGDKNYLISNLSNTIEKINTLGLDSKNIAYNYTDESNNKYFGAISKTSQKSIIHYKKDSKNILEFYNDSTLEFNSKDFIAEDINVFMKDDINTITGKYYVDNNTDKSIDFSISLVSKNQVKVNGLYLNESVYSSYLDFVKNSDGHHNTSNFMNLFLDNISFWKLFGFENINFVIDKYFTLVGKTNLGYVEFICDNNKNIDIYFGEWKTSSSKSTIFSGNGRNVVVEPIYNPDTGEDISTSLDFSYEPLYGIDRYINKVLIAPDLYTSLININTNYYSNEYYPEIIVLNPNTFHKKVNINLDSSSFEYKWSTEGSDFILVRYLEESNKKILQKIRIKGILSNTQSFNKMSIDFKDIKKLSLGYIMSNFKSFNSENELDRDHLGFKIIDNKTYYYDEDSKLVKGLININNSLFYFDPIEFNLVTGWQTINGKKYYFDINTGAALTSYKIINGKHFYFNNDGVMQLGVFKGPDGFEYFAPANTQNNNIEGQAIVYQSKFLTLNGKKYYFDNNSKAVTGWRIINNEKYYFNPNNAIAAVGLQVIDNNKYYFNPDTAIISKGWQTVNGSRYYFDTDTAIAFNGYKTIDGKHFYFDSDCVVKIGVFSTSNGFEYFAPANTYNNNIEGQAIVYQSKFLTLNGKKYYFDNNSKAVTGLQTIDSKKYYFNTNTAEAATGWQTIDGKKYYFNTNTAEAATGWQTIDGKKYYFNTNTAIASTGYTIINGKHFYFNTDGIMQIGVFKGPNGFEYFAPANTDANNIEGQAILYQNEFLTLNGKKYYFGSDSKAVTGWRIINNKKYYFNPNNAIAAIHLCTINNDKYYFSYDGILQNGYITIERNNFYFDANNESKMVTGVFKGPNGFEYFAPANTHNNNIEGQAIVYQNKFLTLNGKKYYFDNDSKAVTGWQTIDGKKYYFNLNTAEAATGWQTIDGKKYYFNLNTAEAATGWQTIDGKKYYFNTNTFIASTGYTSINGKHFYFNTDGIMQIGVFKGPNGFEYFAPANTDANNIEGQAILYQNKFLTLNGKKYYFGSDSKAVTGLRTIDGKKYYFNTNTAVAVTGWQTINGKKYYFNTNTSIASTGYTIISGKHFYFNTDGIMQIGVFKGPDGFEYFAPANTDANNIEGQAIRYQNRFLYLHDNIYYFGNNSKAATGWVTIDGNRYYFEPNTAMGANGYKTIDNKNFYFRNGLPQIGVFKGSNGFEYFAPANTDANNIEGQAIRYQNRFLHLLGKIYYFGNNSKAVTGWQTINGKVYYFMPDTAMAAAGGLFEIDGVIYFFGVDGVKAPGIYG
observation type: koff (s⁻¹)
Report as a plain number; the unit s⁻¹ is understood.

Using the record for A26.8 VHH mutant T54Y (VHH, not shown: small tags and cut ends) VHH: QVKLEESGGGLVQAGGSLRLSCAASERTFSRYPVAWFRQAPGAEREFVAVISSYGTSTYYADSVKGRFTISRDNAKVTVYLQMNNLKREDTAVYFCAVNSQRTRLQDPNEYDYWGQGTQVTVSS , state its measured koff. 0.0694

Using the record for A26.8-Q101K (VHH, not shown: small tags and cut ends) VHH: QVKLEESGGGLVQAGGSLRLSCAASERTFSRYPVAWFRQAPGAEREFVAVISSTGTSTYYADSVKGRFTISRDNAKVTVYLQMNNLKREDTAVYFCAVNSKRTRLQDPNEYDYWGQGTQVTVSS , state its measured koff. 0.0198

Using the record for A26.8-T54R (VHH, not shown: small tags and cut ends) VHH: QVKLEESGGGLVQAGGSLRLSCAASERTFSRYPVAWFRQAPGAEREFVAVISSRGTSTYYADSVKGRFTISRDNAKVTVYLQMNNLKREDTAVYFCAVNSQRTRLQDPNEYDYWGQGTQVTVSS , state its measured koff. 0.044

Using the record for A26.8-Q101K,T103R (VHH, not shown: small tags and cut ends) VHH: QVKLEESGGGLVQAGGSLRLSCAASERTFSRYPVAWFRQAPGAEREFVAVISSTGTSTYYADSVKGRFTISRDNAKVTVYLQMNNLKREDTAVYFCAVNSKRRRLQDPNEYDYWGQGTQVTVSS , state its measured koff. 0.0226
